- TESTED_SYSTEM: UniProtKB P09619
- Sequence (P09619 33-1106, species assumed): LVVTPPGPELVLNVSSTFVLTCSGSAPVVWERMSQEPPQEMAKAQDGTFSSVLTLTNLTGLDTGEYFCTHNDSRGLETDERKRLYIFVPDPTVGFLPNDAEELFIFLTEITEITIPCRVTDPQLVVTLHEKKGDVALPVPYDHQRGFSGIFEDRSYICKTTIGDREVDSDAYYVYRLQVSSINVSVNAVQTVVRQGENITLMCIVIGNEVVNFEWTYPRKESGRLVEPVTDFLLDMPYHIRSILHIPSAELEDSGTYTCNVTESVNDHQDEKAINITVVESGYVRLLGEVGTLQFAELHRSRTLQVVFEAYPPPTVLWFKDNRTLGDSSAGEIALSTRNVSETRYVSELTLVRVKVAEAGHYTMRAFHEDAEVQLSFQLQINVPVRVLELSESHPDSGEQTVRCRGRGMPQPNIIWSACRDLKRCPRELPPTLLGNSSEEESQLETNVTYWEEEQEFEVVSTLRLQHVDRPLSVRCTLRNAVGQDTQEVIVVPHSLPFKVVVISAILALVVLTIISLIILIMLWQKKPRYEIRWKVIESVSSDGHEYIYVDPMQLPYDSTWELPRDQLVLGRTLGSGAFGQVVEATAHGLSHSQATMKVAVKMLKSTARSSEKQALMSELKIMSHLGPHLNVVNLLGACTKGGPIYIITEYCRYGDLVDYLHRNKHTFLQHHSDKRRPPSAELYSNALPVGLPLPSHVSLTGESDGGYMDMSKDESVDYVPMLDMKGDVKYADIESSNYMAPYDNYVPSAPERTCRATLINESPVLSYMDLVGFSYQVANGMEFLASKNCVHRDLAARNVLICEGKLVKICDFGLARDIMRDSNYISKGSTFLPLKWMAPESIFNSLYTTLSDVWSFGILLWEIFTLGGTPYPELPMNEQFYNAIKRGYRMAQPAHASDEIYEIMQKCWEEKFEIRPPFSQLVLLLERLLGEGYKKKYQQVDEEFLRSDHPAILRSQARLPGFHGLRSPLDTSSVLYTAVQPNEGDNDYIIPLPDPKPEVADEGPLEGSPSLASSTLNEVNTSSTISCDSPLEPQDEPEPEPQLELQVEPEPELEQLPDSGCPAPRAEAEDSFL
- ASSAY_EXPLANATION: PDGF-R ELISA
- Assay type: cell-based
ENDPOINT: PDGF Kinase %Inhibition

Sample answers from the record:
Cc1ccc(C=C2C(=O)Nc3ccc(Br)c(C)c32)o1 25.1%
CNS(=O)(=O)c1ccc2c(c1)C(=Cc1sccc1Br)C(=O)N2 -8.4%
CNS(=O)(=O)c1ccc2c(c1)C(=Cc1cc(C(C)C)c(O)c(C(C)C)c1)C(=O)N2 40.4%
COc1ccc2[nH]cc(C=C3C(=O)Nc4ccc(CCCl)cc43)c2c1 -8.7%

Asked: Find the recorded PDGF Kinase %Inhibition belonging to CNS(=O)(=O)c1ccc2c(c1)C(=Cc1cccc(C#N)c1)C(=O)N2 and report it.
Given back: 5.0 ! %

Asked: Find the recorded PDGF Kinase %Inhibition belonging to Cc1c(Br)ccc2c1C(=Cc1ccc(Br)o1)C(=O)N2 and report it.
Given back: 25.2%

Asked: Find the recorded PDGF Kinase %Inhibition belonging to O=C1Nc2ccc(S(=O)(=O)Nc3ccc(C(F)(F)F)cc3)cc2C1=Cc1cc2c3c(c1O)CCCN3CCC2 and report it.
Given back: -7.6%

Asked: Find the recorded PDGF Kinase %Inhibition belonging to CN1C(=O)C(=C2C(=O)Nc3ccc(S(=O)(=O)N4CCOCC4)cc32)c2ccccc21 and report it.
Given back: 28.4%

Asked: Find the recorded PDGF Kinase %Inhibition belonging to O=C1Nc2c(Br)cc(Br)cc2C1=Cc1cc(Cl)cc(Cl)c1O and report it.
Given back: 22.3%

---

- TESTED_SYSTEM: FLK-1 receptor (Mus musculus, UniProt P35918)
- Construct: expressed in transfected cells; host or cells: NIH3T3 C7#3
- Sequence (P35918 20-1345): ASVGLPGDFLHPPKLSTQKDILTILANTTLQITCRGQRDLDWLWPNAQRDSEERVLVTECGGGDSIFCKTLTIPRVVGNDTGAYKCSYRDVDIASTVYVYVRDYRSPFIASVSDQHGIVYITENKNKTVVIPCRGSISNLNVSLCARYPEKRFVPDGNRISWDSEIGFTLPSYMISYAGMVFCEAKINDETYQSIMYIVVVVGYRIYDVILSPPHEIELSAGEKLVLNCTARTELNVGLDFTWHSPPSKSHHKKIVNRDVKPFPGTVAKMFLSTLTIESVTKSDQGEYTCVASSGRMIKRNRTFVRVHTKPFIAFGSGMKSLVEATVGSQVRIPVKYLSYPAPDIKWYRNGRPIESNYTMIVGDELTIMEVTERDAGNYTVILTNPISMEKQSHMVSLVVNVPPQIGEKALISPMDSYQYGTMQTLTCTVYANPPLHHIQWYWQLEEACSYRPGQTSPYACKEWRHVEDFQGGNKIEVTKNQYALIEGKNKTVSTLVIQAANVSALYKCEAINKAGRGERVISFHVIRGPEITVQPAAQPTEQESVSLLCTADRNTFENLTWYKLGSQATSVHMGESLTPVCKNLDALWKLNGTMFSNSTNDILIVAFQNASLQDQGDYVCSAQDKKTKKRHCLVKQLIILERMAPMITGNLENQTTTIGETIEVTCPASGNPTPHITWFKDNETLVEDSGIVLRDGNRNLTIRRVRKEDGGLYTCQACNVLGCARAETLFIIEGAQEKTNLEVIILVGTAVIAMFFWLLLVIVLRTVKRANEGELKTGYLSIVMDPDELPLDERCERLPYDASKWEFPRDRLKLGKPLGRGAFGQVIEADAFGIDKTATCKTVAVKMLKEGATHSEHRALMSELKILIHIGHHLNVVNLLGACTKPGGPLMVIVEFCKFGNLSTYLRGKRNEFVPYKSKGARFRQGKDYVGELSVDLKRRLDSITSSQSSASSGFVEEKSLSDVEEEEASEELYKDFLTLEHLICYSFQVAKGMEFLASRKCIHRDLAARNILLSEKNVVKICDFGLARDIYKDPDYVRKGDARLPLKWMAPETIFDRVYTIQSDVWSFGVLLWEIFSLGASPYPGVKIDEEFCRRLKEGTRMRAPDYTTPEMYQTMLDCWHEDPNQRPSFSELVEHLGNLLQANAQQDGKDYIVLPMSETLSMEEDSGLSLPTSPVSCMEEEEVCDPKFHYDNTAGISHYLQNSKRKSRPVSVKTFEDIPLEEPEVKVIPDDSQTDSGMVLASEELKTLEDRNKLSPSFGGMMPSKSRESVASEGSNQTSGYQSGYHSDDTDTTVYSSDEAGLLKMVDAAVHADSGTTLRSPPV
- ASSAY_EXPLANATION: FLK-1 ELISA (kinase activity of the FLK-1 receptor in FLK-1/NIH3T3 cells, VEGF stimulated)
- Type: cell-based
ENDPOINT: Fik Kinase %Inhibition (%)
Write the answer as a number in %, unit excluded.

Sample answers from the record:
MOLECULE	TESTED_SYSTEM	Fik Kinase %Inhibition, %
COc1cccc(C=C2C(=O)Nc3ccc(CCCl)cc32)c1OC	FLK-1 receptor (Mus musculus, UniProt P35918)	6.9
O=C1Nc2ccc(S(=O)(=O)N3CCOCC3)cc2C1=CC(c1cccs1)C(F)(F)F (stereo not drawn)	FLK-1 receptor (Mus musculus, UniProt P35918)	7.0
O=C1Nc2ccc(S(=O)(=O)N3CCOCC3)cc2C1=Cc1ccc([N+](=O)[O-])cc1	FLK-1 receptor (Mus musculus, UniProt P35918)	11.0
COc1cc(C=C2C(=O)Nc3ccc(CCCl)cc32)cc(OC)c1	FLK-1 receptor (Mus musculus, UniProt P35918)	21.8
Cc1c(Br)ccc2c1C(=Cc1ccc(O)c(Br)c1)C(=O)N2	FLK-1 receptor (Mus musculus, UniProt P35918)	-13.3
CC(C)(C)c1cc(C=C2C(=O)Nc3ccc(I)cc32)ccc1OCc1ccccc1	FLK-1 receptor (Mus musculus, UniProt P35918)	8.1
CNS(=O)(=O)c1ccc2c(c1)C(=Cc1c(OC)cccc1OC)C(=O)N2	FLK-1 receptor (Mus musculus, UniProt P35918)	10.2
O=C1Nc2c(Br)cc(Br)cc2C1=Cc1cc2ccccc2o1	FLK-1 receptor (Mus musculus, UniProt P35918)	3.7

Asked: Find the recorded Fik Kinase %Inhibition belonging to Cc1c(Br)ccc2c1C(=Cc1ccc([N+](=O)[O-])o1)C(=O)N2 and report it.
Given back: 11.4

Asked: Find the recorded Fik Kinase %Inhibition belonging to COc1c(Cl)cc(C=C2C(=O)Nc3c(Br)cc(Br)cc32)cc1C(C)(C)C and report it.
Given back: -11.2

Asked: Find the recorded Fik Kinase %Inhibition belonging to CNS(=O)(=O)c1ccc2c(c1)C(=Cc1cc(I)c(OCc3ccccc3)c(C(C)(C)C)c1)C(=O)N2 and report it.
Given back: 3.1

Asked: Find the recorded Fik Kinase %Inhibition belonging to O=C1Nc2ccc(S(=O)(=O)Nc3ccc(C(F)(F)F)cc3)cc2C1=Cc1ccc(O)cc1 and report it.
Given back: 26.7

Asked: Find the recorded Fik Kinase %Inhibition belonging to CNS(=O)(=O)c1ccc2c(c1)C(=Cc1c[nH]c(=O)[nH]c1=O)C(=O)N2 and report it.
Given back: 25.8

Asked: Find the recorded Fik Kinase %Inhibition belonging to Cc1cc(C=C2C(=O)Nc3ccc(Br)c(C)c32)cc(C(C)(C)C)c1O and report it.
Given back: 12.3

Asked: Find the recorded Fik Kinase %Inhibition belonging to Cc1c(Br)cc(Br)c2c1C(=Cc1c(Br)cnn1-c1ccc(Cl)cc1)C(=O)N2 and report it.
Given back: -3.2

Asked: Find the recorded Fik Kinase %Inhibition belonging to CNS(=O)(=O)c1ccc2c(c1)C(=Cc1ccc(OC)c(OC)c1)C(=O)N2 and report it.
Given back: 15.6

Asked: Find the recorded Fik Kinase %Inhibition belonging to O=C1Nc2ccc(CCCl)cc2C1=Cc1ccc2ccccc2c1O and report it.
Given back: 1.8

Asked: Find the recorded Fik Kinase %Inhibition belonging to Cc1cc(C=C2C(=O)Nc3c(Br)cc(Br)cc32)cc(C)c1OCc1ccccc1 and report it.
Given back: -27.4

Reference for the values: patent EP1247803A2
